# System: ATP;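 further: ATP exposure 15 min at 22 °C before imaging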
# PROTOCOL NOTES: switch fluorescence ratio, 500 uM ATP over buffer (Cy3 cluster intensity, sum of 5 cycles each) (fold (ratio)); higher = stronger signal-on switching upon ATP binding; sequences stand for … in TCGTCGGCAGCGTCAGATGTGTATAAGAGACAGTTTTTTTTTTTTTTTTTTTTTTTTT…TC
# MEASUREMENT PARAMETERS: aptamer strand: ATP DNA aptamer (quencher-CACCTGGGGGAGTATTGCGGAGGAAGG + anchor), 100 nM annealed; ATP concentration: 500 uM
ASSAY ENDPOINT: switch fluorescence ratio
Reply: number alone, nothing else.

Which switch fluorescence ratio value belongs to GGGGGGTTGT ? 1.03

And then TGTTAGTTTT , what is it? 0.981

And then GGTTCAGGCT , what is it? 0.977

And then TGGTTTGGGA , what is it? 1

And then TAGGGCGAGG , what is it? 0.99

And then CATTACTGTA , what is it? 1.24

And then ATTCGTAGGG , what is it? 1.01

And then AGTGCATTTT , what is it? 1.06

And then CAATTTGAAG , what is it? 0.978

And then AAGGGCCCGT , what is it? 1.02

And then AGTGTCGTTT , what is it? 0.991

And then GGCAGTCCGG , what is it? 0.988

And then ATTTTATATT , what is it? 1.02

And then GTCTGGGCGA , what is it? 1.01

And then ATCCTTTAAC , what is it? 1

And then TGGGGGG , what is it? 1.02

And then AATTCGCGGG , what is it? 0.981

And then ATATTGTCAT , what is it? 0.962

And then CACAGGCCCA , what is it? 1.04

And then AGTGGGAATC , what is it? 0.989

And then CGGTATAGTT , what is it? 0.988
